A collection of molecules and their measured logD
test: physchem; conditions: buffer, pH 7.4, logD
Description: Lipophilicity, log D of the compound at pH 7.4 by microscale shake flask method
measurement-label: logD

> print(dat)
                                    molecule  measurement.label  quantitative.result
 1  CC(C)n1cnc2cnc(Nc3ccnc(N4CCC(C(N)=O)CC4)n3)cc21               logD                  1.7
 2  Cc1nc2cnc(Nc3ccnc(N4CCC(S(C)(=O)=O)CC4)n3)cc2n1C(C)C               logD                  1.6
 3  CO[C@H]1CCN(c2nccc(Nc3cc4c(cn3)nc([C@@H](C)O)n4[C@H](C)C(F)(F)F)n2)C[C@H]1F               logD                  2.2
 4  COC1(CCN)CCN(c2nccc(Nc3cc4c(cn3)nc(C)n4C(C)C)n2)CC1               logD                  0.1
 5  COC1CCN(c2nccc(Nc3cc4c(cn3)ncn4C3CCC3)n2)CC1               logD                  2.8
 6  COC1CCN(c2nccc(Nc3cc4c(cn3)ncn4C3CCCCC3)n2)CC1               logD                  3.4
 7  Cc1nc2cnc(Nc3ccnc(NCC(C)(C)S(C)(=O)=O)n3)cc2n1C(C)C               logD                  1.4
 8  Cc1nc2cnc(Nc3ccnc(N4CC[C@H](O)[C@H](F)C4)n3)cc2n1C(C)C (racemic)               logD                  1.5
 9  Cc1nc2cnc(Nc3ccnc(N4CC[C@H](O)C(F)(F)C4)n3)cc2n1C(C)C (racemic)               logD                  2.6
10  COCC1(OC)CCN(c2nccc(Nc3cc4c(cn3)nc(C)n4C(C)C)n2)CC1               logD                  2.4
11  Cc1nc2cnc(Nc3ccnc(NCC(C)(C)C(N)=O)n3)cc2n1C(C)C               logD                  1.5
12  CCn1cnc2cnc(Nc3ccnc(N4CCC(OC)CC4)n3)cc21               logD                  2.4
13  COC1CCN(c2nccc(Nc3cc4c(cn3)ncn4C3CCOC3)n2)CC1 (racemic)               logD                  1.8
14  Cc1nc2cnc(Nc3ccnc(OCC(C)(C)S(C)(=O)=O)n3)cc2n1C(C)C               logD                  1.6
15  Cc1nc2cnc(Nc3ccnc(N4CCC(C)(C(N)=O)C4)n3)cc2n1C(C)C (stereo not given)               logD                  1.6
16  COC1(CN(C)C)CCN(c2nccc(Nc3cc4c(cn3)nc(C)n4C(C)C)n2)CC1               logD                  1.5
17  COC1(CO)CCN(c2nccc(Nc3cc4c(cn3)nc(C)n4C(C)C)n2)CC1               logD                  1.7
18  COC1CCN(c2nccc(Nc3cc4c(cn3)nc(C)n4C(C)C)n2)CC1               logD                  2.4
19  Cc1nc2cnc(Nc3ccnc(SCC(C)(C)C(N)=O)n3)cc2n1C(C)C               logD                  1.9
20  CO[C@H]1CCN(c2nccc(Nc3cc4c(cn3)nc(CO)n4C(C)C)n2)CC1(F)F (racemic)               logD                  2.8
